The origin of these recorded values is paper PMC3691235.

test system: LTB4 synthesis in whole human blood; assay: Human blood LTB4 inhibition assay; format: cell-based; settings: Homo sapiens, compounds at 10 µM, calcium ionophore stimulated, ELISA; error in parentheses
Measured inhibition at 10 µM of individual entries

Request: inhibition at 10 µM lookup needed for `CC(=O)N1CCN(c2ccc(NCc3ccc(-c4cccc(Cl)c4)o3)cc2)CC1` , thanks.
Result: ~50%

Request: Proceed to `Cc1ccc(CNc2ccc(N3CCCCC3)cc2)cc1`
Result: < 10%

Request: Proceed to `CC(C)(C)OC(=O)N1CCN(c2ccc(NCc3ccc(-c4ccc(C#N)cc4)o3)cc2)CC1`
Result: ~50%

###

Target: Human leukocyte 5-lipoxygenase (Homo sapiens, UniProt P09917)
Construct: made in house
Sequence (P09917 1-674): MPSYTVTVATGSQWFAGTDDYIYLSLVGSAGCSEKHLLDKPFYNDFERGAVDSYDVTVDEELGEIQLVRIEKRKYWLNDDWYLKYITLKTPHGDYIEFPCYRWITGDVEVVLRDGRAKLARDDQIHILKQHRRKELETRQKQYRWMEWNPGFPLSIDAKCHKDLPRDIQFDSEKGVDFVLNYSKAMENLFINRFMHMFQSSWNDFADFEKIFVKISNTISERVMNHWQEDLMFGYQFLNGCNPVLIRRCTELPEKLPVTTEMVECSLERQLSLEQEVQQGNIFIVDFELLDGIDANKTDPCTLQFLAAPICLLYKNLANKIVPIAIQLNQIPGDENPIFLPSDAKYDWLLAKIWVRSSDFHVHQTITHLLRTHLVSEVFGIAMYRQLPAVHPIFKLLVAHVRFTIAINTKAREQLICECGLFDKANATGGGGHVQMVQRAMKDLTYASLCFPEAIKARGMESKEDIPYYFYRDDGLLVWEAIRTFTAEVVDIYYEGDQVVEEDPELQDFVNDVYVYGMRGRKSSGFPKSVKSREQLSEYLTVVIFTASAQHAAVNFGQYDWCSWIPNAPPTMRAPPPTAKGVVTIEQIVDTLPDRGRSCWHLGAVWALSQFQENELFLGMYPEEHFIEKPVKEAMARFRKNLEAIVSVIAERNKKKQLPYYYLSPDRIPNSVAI
Test: Lipoxygenase UV-based inhibitor assay, 5-LOX
Type: biochemical
Settings: UV-based assay, 10 µM AA, pH 7.3, crude enzyme; error = SD; read-out: 5-LOX IC50
Observable: pIC50
Quick note: pIC50 means taking -log10 of the concentration in moles per liter.

Past entries and their recorded results:
Cc1ccc(CNc2ccc(N3CCCCC3)cc2)cc1 [Compound 15] : 6.22
N#Cc1ccc(-c2ccc(CNc3ccc(N4CCCCC4)cc3)o2)cc1 [Compound 14] : 6.48
CC(=O)N1CCN(c2ccc(NCc3ccc(-c4ccc(Br)cc4)o3)cc2)CC1 [Compound 12] : 5.59

Request: pIC50 lookup needed for CC(=O)N1CCN(c2ccc(NCC3COC(Cn4ccnc4)(c4ccc(Cl)cc4Cl)O3)cc2)CC1 (stereo not drawn) [ketaminazole (16), ketaminazole] , thanks.
Result: 6.15
